# target-or-system: T1, soluble human FcRn (human, UniProt P55899 24-297; P61769 21-119, biotinylated (Sulfo-NHS-LC-Biotin) in the ELISA; amine-coupled to CM5 chip in SPR)
# T1 construct: also called shFcRn; biotinylated shFcRn
# T1 sequence (P55899 24-297 limits assumed, chain 1 of 2): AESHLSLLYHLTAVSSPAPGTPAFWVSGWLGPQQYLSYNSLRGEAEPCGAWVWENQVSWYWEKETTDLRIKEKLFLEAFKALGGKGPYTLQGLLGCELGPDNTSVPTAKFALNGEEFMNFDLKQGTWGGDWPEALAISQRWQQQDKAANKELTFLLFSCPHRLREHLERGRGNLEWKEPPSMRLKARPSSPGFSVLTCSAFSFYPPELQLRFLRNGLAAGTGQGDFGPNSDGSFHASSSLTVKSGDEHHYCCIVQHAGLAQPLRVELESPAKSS
# T1 sequence (P61769 21-119 limits assumed, chain 2 of 2): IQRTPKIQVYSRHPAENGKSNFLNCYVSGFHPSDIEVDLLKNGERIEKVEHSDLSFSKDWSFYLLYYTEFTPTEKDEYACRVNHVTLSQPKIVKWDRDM
# test: ELISA, competitor human IgG
Bridge positions count the residues as written; N and C are the ends. Square brackets hold non-standard residues; d marks the D form. Ends that are not written are not given here. NMeA = CN[C@@H](C)C(=O)O
measure-name: pIC50
// returns pIC50 (minus log10 of molar concentration), number only

Example binders with recorded pIC50:
{"binder": "RFXTGHFGGLYPCNGP (Pen at 3; NMeLeu at 10; disulfide; C-terminal amide) [Peptide No. 146]", "value-measured": 5.68}
{"binder": "QRFXTGHFGGLYPCNGP (Pen (L-penicillamine) at 4; disulfide; C-terminal amide) [Peptide No. 32]", "value-measured": 5.70}

Lab note: next binder to report on.
Reported pIC50, binder QRFC[NMeA]GHFGGLYPCNGP-NH2 (disulfide 4-14 (inferred)) [Peptide No. 196] : ____
3.77
